Origin of the recorded values: ChEMBL document CHEMBL5678802

biological target: Proto-oncogene tyrosine-protein kinase Src (Homo sapiens, UniProt P12931); test: Inhibition of human SRC in presence of ATP
Sequence (P12931 2-536 limits assumed): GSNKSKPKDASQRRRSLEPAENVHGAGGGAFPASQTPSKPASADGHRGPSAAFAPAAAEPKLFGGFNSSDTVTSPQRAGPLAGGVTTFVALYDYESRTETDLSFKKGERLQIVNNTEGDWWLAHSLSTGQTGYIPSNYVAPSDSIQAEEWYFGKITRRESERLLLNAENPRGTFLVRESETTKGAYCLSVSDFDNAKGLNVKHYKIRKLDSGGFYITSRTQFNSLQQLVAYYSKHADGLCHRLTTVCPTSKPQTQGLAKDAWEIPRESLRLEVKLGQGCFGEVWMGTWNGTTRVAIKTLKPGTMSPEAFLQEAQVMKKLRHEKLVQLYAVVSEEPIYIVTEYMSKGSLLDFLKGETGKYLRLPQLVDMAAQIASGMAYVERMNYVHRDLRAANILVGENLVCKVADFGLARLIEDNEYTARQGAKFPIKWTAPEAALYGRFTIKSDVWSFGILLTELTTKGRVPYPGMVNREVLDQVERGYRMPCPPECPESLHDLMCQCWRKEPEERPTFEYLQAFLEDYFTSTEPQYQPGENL
PROPERTY LABEL: IC50 (nM)

                                   compound  unit_text  obs_value
0  Cc1nc(Nc2n[nH]c3c2CN(C(=O)N[C@H](CN(C)C)c2ccccc2)C3(C)C)c2sccc2n1 [PF-03758309]         nM         55

###

tested on: HPAC; assay: Antiproliferative activity against human HPAC cells assessed as inhibition of cell proliferation incubated for 3 days by CellTiter-Glo Luminescent Cell Viability Assay; assay type: functional, cell-based; conditions: 72 h
pIC50: −log10 of the molar value.
PROPERTY LABEL: pIC50

>>> df
                                smiles_code  obs_value
0  Cc1nc(Nc2n[nH]c3c2CN(C(=O)N[C@H](CN(C)C)c2ccccc2)C3(C)C)c2sccc2n1       6.58

###

target: Tyrosine-protein kinase Yes (Homo sapiens); test: Inhibition of human YES1 in presence of ATP by cellular assay
Sequence (P07947 whole entry): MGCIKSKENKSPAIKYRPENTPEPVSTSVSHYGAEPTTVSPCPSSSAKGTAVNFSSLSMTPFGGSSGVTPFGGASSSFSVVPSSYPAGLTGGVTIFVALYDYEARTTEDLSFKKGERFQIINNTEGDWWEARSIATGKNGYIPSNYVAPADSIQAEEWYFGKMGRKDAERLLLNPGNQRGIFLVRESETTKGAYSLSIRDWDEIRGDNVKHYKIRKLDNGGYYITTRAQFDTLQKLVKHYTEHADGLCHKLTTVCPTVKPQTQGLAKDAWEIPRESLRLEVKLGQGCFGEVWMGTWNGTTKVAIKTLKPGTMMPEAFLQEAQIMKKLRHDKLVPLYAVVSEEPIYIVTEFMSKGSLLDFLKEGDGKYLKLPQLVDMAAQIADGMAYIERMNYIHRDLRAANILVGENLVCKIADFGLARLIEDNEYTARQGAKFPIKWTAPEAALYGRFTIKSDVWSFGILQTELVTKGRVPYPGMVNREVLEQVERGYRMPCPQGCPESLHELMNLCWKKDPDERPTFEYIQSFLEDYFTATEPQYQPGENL
pIC50: −log10 of the molar value.
PROPERTY LABEL: pIC50

                                smiles_code  obs_value
0  Cc1nc(Nc2n[nH]c3c2CN(C(=O)N[C@H](CN(C)C)c2ccccc2)C3(C)C)c2sccc2n1       6.21

###

assay: Drug concentration in nude mouse plasma xenografted with human HCT-116 cells at 0.36 mg/kg administered via pump for 9 days by LC-MS/MS analysis; format: ADME, organism-based; settings: time 9 day
PROPERTY LABEL: concentration at 216 h (ng/mL)

In [3]: df
Out[3]:
                                smiles_code  unit_text  obs_value
0  Cc1nc(Nc2n[nH]c3c2CN(C(=O)N[C@H](CN(C)C)c2ccccc2)C3(C)C)c2sccc2n1      ng/mL        1.7

###

tested on: PANC-08-13; assay: Antiproliferative activity against human PANC-08-13 cells assessed as inhibition of cell proliferation incubated for 3 days by CellTiter-Glo Luminescent Cell Viability Assay; assay type: functional, cell-based; settings: PANC-08-13, 72 h
PROPERTY LABEL: IC50 (nM)

>>> print(df.to_string())
                                smiles_code  obs_value
0  Cc1nc(Nc2n[nH]c3c2CN(C(=O)N[C@H](CN(C)C)c2ccccc2)C3(C)C)c2sccc2n1         12

###

tested on: HCC1419; experiment: Antiproliferative activity against human HCC1419 cells assessed as inhibition of cell proliferation incubated for 3 days by CellTiter-Glo Luminescent Cell Viability Assay; assay type: functional, cell-based; details: HCC1419, 72 h
pIC50: −log10 of the molar value.
PROPERTY LABEL: pIC50

>>> print(df.to_string())
                                smiles_code  property_label  obs_value
0  Cc1nc(Nc2n[nH]c3c2CN(C(=O)N[C@H](CN(C)C)c2ccccc2)C3(C)C)c2sccc2n1           pIC50       9.10

###

system: NCI-H1755; assay: Antiproliferative activity against human NCI-H1755 cells assessed as inhibition of cell proliferation incubated for 3 days by CellTiter-Glo Luminescent Cell Viability Assay; format: functional, cell-based; settings: NCI-H1755, 72 h
PROPERTY LABEL: IC50 (nM)

>>> print(df.to_string())
                                   compound  unit_text  obs_value
0  Cc1nc(Nc2n[nH]c3c2CN(C(=O)N[C@H](CN(C)C)c2ccccc2)C3(C)C)c2sccc2n1 [PF-03758309]         nM         15
